// data source = PubChem BioAssay

# assayMethodText: differential killing of epithelial or mesenchymal cells, primary screen, imaging, PC-3E GFP, TEM4-18 mCherry, co-culture (AID 1345086);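 also: cells exposed to compound for 72 h before imaging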
# recordedConditions: imaging cell counts, measured here: mesenchymal TEM4-18 mCherry cell survival, at 1 µM
assayReadout: normalised cell number
// no unit string in output, number only

**Query** Provide one value: measured normalised cell number of `COc1ccc2cc([C@H](C)CO)ccc2c1`
**Result** 1.2

**Query** Provide one value: measured normalised cell number of `CCOc1ccc(C(=O)c2ccc(O)c(O)c2O)cc1`
**Result** 0.87

**Query** Provide one value: measured normalised cell number of `COc1ccc2c(C)cc(=O)oc2c1`
**Result** 1.16

**Query** Provide one value: measured normalised cell number of Cc1c(F)c(N2CCNC(C)C2)cc2c1c(=O)c(C(=O)O)cn2C1CC1 (stereo not drawn)
**Result** 1.12

**Query** Provide one value: measured normalised cell number of `Cc1cc(=O)oc2cc(O)cc(O)c12`
**Result** 0.94

**Query** Provide one value: measured normalised cell number of `O=c1c(O)c(-c2ccccc2)oc2cc(O)ccc12`
**Result** 0.88

**Query** Provide one value: measured normalised cell number of `CCN(C)C(=O)Oc1cccc([C@H](C)N(C)C)c1`
**Result** 1.4

**Query** Provide one value: measured normalised cell number of `N.N.O=C([O-])C1(C(=O)[O-])CCC1.[Pt+2]`
**Result** 1.04

**Query** Provide one value: measured normalised cell number of `COc1cc(O)ccc1C(C)=O`
**Result** 0.91

**Query** Provide one value: measured normalised cell number of `Cc1cc(OC(=O)c2c(C)cc(O)cc2O)cc(O)c1C(=O)O`
**Result** 0.87

**Query** Provide one value: measured normalised cell number of CC(C)CCCC(C)N (stereo not drawn)
**Result** 1.1

**Query** Provide one value: measured normalised cell number of `C[C@@H](O)[C@H]1C(=O)N2C(C(=O)O)=C(SCCN=CN)C[C@H]12`
**Result** 1.11

**Query** Provide one value: measured normalised cell number of `O=C(Nc1ccccc1)Nc1ccccc1`
**Result** 0.91

**Query** Provide one value: measured normalised cell number of CC(C)NCC(O)COc1cccc2ccccc12 (stereo not drawn)
**Result** 1.31

**Query** Provide one value: measured normalised cell number of `COc1ccc(-c2cc(=O)c3c(O)cc(O)c(-c4cc(-c5cc(=O)c6c(O)cc(O)cc6o5)ccc4OC)c3o2)cc1`
**Result** 0.78

**Query** Provide one value: measured normalised cell number of `CS(=O)(=O)c1ccc(C2=C(c3ccccc3)C(=O)OC2)cc1`
**Result** 0.92

**Query** Provide one value: measured normalised cell number of `CN(C)C(=N)N=C(N)N`
**Result** 0.95

**Query** Provide one value: measured normalised cell number of `O=C(CCCN1CCC(O)(c2ccc(Br)cc2)CC1)c1ccc(F)cc1`
**Result** 0.93

**Query** Provide one value: measured normalised cell number of `C=CCSCC=C`
**Result** 1.06

**Query** Provide one value: measured normalised cell number of `Cc1cc(=O)oc2c(O)c(O)ccc12`
**Result** 0.89

**Query** Provide one value: measured normalised cell number of `CN1C(=O)OC(C)(C)C1=O`
**Result** 0.9

**Query** Provide one value: measured normalised cell number of `CCOC(=O)CCC(=O)O[C@H]1[C@H](O[C@@H]2[C@@H](C)[C@H](O[C@H]3C[C@@](C)(OC)[C@@H](O)[C@H](C)O3)[C@@H](C)C(=O)O[C@H](CC)[C@@](C)(O)[C@H](O)[C@@H](C)C(=O)[C@H](C)C[C@@]2(C)O)O[C@H](C)C[C@@H]1N(C)C`
**Result** 1.54

**Query** Provide one value: measured normalised cell number of CC(C)=CC1C(C(=O)O)C1(C)C (stereo not drawn)
**Result** 1.03

**Query** Provide one value: measured normalised cell number of `CCCCOCCOCCOCc1cc2c(cc1CCC)OCO2`
**Result** 1

**Query** Provide one value: measured normalised cell number of COc1ccc2c(c1)OCC(Cc1ccc(OC)c(OC(C)=O)c1)C2=O (stereo not drawn)
**Result** 0.4

**Query** Provide one value: measured normalised cell number of `CCCn1cnc2c1c(=O)n(CCCCC(C)=O)c(=O)n2C`
**Result** 0.96

**Query** Provide one value: measured normalised cell number of `[O-][n+]1cccc(CO)c1`
**Result** 1.02

**Query** Provide one value: measured normalised cell number of CN1C(=O)CC(C)(c2ccccc2)C1=O (stereo not drawn)
**Result** 1.02

**Query** Provide one value: measured normalised cell number of `CC(=O)Nc1c(I)c(NC(C)=O)c(I)c(C(=O)O)c1I`
**Result** 1.19

**Query** Provide one value: measured normalised cell number of CC(=O)NC(C(=O)O)C(C)(C)SN=O (stereo not drawn)
**Result** 1.06

**Query** Provide one value: measured normalised cell number of `COc1cc(-c2coc3cc(OC)c(OC)c(OC)c3c2=O)cc(OC)c1OC`
**Result** 1.1

**Query** Provide one value: measured normalised cell number of `CN(C)C(=O)C(CCN1CCC(O)(c2ccc(Cl)cc2)CC1)(c1ccccc1)c1ccccc1`
**Result** 1.33

**Query** Provide one value: measured normalised cell number of `Nc1nc2ncc(=O)[nH]c2c(=O)[nH]1`
**Result** 1.18

**Query** Provide one value: measured normalised cell number of `O=C(O)c1cc(=O)c(O)c2c(O)c(O)ccc2c1`
**Result** 1.11

**Query** Provide one value: measured normalised cell number of `CCN(CC)Cc1ccc(Nc2ccnc3cc(Cl)ccc23)cc1O`
**Result** 0.91

**Query** Provide one value: measured normalised cell number of `CC(C)OC(=O)C(C)(C)Oc1ccc(C(=O)c2ccc(Cl)cc2)cc1`
**Result** 1

**Query** Provide one value: measured normalised cell number of Cn1nnnc1SCC1=C(C(=O)O)N2C(=O)C(NC(=O)C(OC=O)c3ccccc3)C2SC1 (stereo not drawn)
**Result** 1.06

**Query** Provide one value: measured normalised cell number of `COc1ccc2c3c1O[C@H]1C[C@@H](O)C=C[C@@]31CCN(C)C2`
**Result** 1.15

**Query** Provide one value: measured normalised cell number of `COc1ccc([C@@H]2CC(=O)c3c(O)cc(O)cc3O2)cc1O`
**Result** 1.16

**Query** Provide one value: measured normalised cell number of `O=C(CC(=O)c1ccccc1)c1ccccc1`
**Result** 0.97

**Query** Provide one value: measured normalised cell number of `O=C(O)c1nc2cc(Cl)c(Cl)cc2[nH]c1=O`
**Result** 1.12

**Query** Provide one value: measured normalised cell number of `COc1cc2c(cc1OC)[C@@H]1C(=O)c3ccc4c(c3O[C@@H]1CO2)C=CC(C)(C)O4`
**Result** 0.64

**Query** Provide one value: measured normalised cell number of `CC/C(=C(\c1ccccc1)c1ccc(OCCN(C)C)cc1)c1ccccc1`
**Result** 1.01

**Query** Provide one value: measured normalised cell number of `CC(C)=CCc1c2c(c3occ(-c4ccc(O)cc4)c(=O)c3c1O)C=CC(C)(C)O2`
**Result** 1.06

**Query** Provide one value: measured normalised cell number of `CN1C(=O)CC[C@H]1c1cccnc1`
**Result** 1.23

**Query** Provide one value: measured normalised cell number of `CC(=O)c1ccc[nH]1`
**Result** 1.03

**Query** Provide one value: measured normalised cell number of `CCCNC(C)(C)COC(=O)c1ccccc1`
**Result** 1.29

**Query** Provide one value: measured normalised cell number of `C[n+]1cccc(C(=O)[O-])c1`
**Result** 0.75
